# System: phosphorylation of Akt at Serine 473 in U87 MG cells
# method: cells
# particulars: Homo sapiens, U-87 MG, 2 h, read-out: U87Cell IC50, pAkt (Ser 473), U87 MG cells, two hours with compound
pIC50: −log10 of the molar value.
Below, each entry is listed with its recorded pIC50.
measured.quantity: pIC50

Cc1cnc(Nc2cccc3[nH]ncc23)c(-c2nc(C)nc(N)n2)c1: 6.71
COc1cc(Nc2ncc(C(C)(C)O)cc2-c2nc(C)nc(N)n2)cnc1OC: 8.15
COc1ccc(Nc2ncc(C(N)C(F)(F)F)cc2-c2nc(C)nc(N)n2)cn1 (centres unmarked): 6.97
Cc1nc(N)cc(-c2cccnc2Nc2cnc(Cl)c(NS(=O)(=O)N(C)C)c2)n1: 6.76

Source of measurements: patent US8772480B2
